- ASSAY COMMENT: compounds binding Alexa647 anti-His antibody – biochemical, small-molecule microarray, 635 nm fluorescence, artefact control for SMM control protein annotation, primary screen (AID 1128);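 also: score merges feature fluorescence with signal-to-noise for each printed compound spot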
- ASSAY CONTEXT: higher = more signal
Please mark t if the recorded composite z-score is equal to or greater than 0.8, and f if it falls below.

compound=COc1ccc(C(=O)Nc2ccc(CN3C(=O)[C@]4(O[C@H](CCn5cc([C@H](O)c6ccccc6)nn5)[C@@H]([Si](C)(C)c5ccc(OC)cc5)[C@@H]4C)c4ccccc43)cc2)cc1 answer_label=f
compound=C=C(COC)C(=O)CC[C@H](OC(=O)c1ccccc1-c1ccccc1C(=O)O)c1ccc(OCCO)cc1 answer_label=t
compound=C=C(COC)C(=O)CC[C@H](OC(=O)c1ccccc1-c1ccccc1C(=O)O)c1ccc(CO)o1 answer_label=f
compound=C[N+](C)(C)CCCCCCNC(=O)[C@H]1C[C@H]2C(=O)N3CCC[C@H]3C(=O)N2[C@H]1c1cccc(OCCO)c1 answer_label=t
compound=CN(C)C(=O)[C@@]1(CCC(=O)OC(C)(C)C)COC(c2ccc(OCCCO)cc2)=N1 answer_label=f
compound=C=CCOc1ccc([C@@H]2CC=C(C(=O)OCC)[C@H](c3cccc(Br)c3)N2S(=O)(=O)c2ccc(C)cc2)cc1 answer_label=f
compound=COc1ccc([Si](C)(C)[C@@H]2[C@@H](CCO)O[C@]3(C(=O)N(Cc4ccc(N5C(=O)c6ccccc6Oc6ccccc65)cc4)c4ccccc43)[C@H]2C)cc1 answer_label=f
compound="O=C1C2C=CC(C(O)c3ccccn3)N(Nc3ccccc3)C2C(=O)N1c1ccccc1 (stereo not given)" answer_label=f
compound=[N-]=[N+]=NCc1ccccc1C[C@]1(C(=O)NCCN2CCOCC2)N=C(c2ccc(OCCCO)cc2)O[C@H]1c1ccccc1 answer_label=f
compound="CC1CC/C=C\\[C@H]2OC34C=CCN(c5ccc(Cl)cc5)C(=O)[C@H]3N(C(CO)C(C)C)C(=O)[C@]4(C)C2C(=O)O1 (stereo not given in full)" answer_label=f
compound=COC(=O)[C@@]1(Cc2ccccc2)[C@H]2c3cc(C(=O)N4CCCC4)n(Cc4ccc(OC(F)(F)F)cc4)c3C[C@H]2CN1C(=O)c1ccccc1 answer_label=t
compound="CC(C)C(CO)N1C(=O)[C@@H]2[C@H]3C(=O)OCC=C[C@H]3OC23C=CCN(Cn2nnc4ccccc42)C(=O)[C@@H]13 (stereo not given in full)" answer_label=f
compound="CC(C)C(CO)N1C(=O)[C@@H]2[C@H]3C(=O)OCC=C[C@H]3OC23C=CCN(CCN2CCOCC2)C(=O)[C@@H]13 (stereo not given in full)" answer_label=f
compound=COc1ccc([Si](C)(C)[C@H]2[C@H](CCn3cc(CCO)nn3)O[C@@]3(C(=O)N(Cc4cccc(N5C(=O)c6cccc7cccc5c67)c4)c4ccccc43)[C@@H]2C)cc1 answer_label=f
compound=C=CCOC(=O)[C@@H]1[C@H]2C(=O)O[C@H](c3ccccc3)[C@H](c3ccccc3)N2[C@H](c2ccc(OCCOC(=O)[C@H]3C[C@H]4C(=O)N[C@@H](Cc5ccccc5)C(=O)N4[C@H]3c3cccc(OCCO)c3)cc2)[C@@]12C(=O)Nc1ccc(I)cc12 answer_label=t
compound=[N-]=[N+]=NCc1ccccc1[C@H]1OC(c2ccc(OCCCO)cc2)=N[C@@]1(Cc1ccccc1N=[N+]=[N-])C(=O)N1CCCCC1 answer_label=t
compound=C=CCOC(=O)[C@H]1[C@@H]2C(=O)O[C@@H](c3ccccc3)[C@@H](c3ccccc3)N2[C@@H](c2ccc(OCCOC(=O)[C@H]3C[C@H]4C(=O)N[C@@H](CCCCN(C)C)C(=O)N4[C@H]3c3ccc(O)cc3)cc2)[C@]12C(=O)Nc1ccccc12 answer_label=f
compound=COC(=O)[C@@]1(Cc2ccc(OC)cc2)[C@H]2c3cc(C(=O)N(C)C)n(CCF)c3C[C@H]2CN1C(=O)c1ccccc1 answer_label=t
compound=COc1ccc(C(=O)Nc2ccc(CN3C(=O)[C@@]4(O[C@@H](CC(=O)N5Cc6ccccc6C[C@H]5CO)[C@H]([Si](C)(C)c5ccc(OC)cc5)[C@H]4C)c4ccccc43)cc2)cc1 answer_label=f
compound="C=CCC(OC(C)=O)[C@@H]1[C@@H](N(Cc2cccc3ccccc23)C(=O)Cc2ccc(F)cc2)c2cc(OCCCO)ccc2N1C(=O)Cc1ccc(OC)cc1 (stereo not given in full)" answer_label=f
compound=C=C[C@H](C)[C@H](OC(=O)Nc1ccc(SC)cc1)c1ccc(O)c2ccccc12 answer_label=f
compound=CN(C)CCCN1C(=O)[C@@]2(Cc3ccccc31)c1ccccc1C(=O)N(Cc1ccccc1)[C@H]2c1ccc(CO)cc1 answer_label=f
compound=COCCOC(=O)N1C(=O)[C@@]2(c3cc(C#Cc4ccc(OC)cc4)ccc31)[C@H](C(=O)N1CCc3cc(OC)c(OC)cc3C1)[C@H]1C(=O)O[C@H](c3ccccc3)[C@H](c3ccccc3)N1[C@@H]2c1ccc(O)cc1 answer_label=t
compound=C[C@H]1ON(c2ccccc2)[C@@H](c2ccccc2)[C@@H]1C(=O)N1C(=O)OC[C@@H]1c1ccccc1 answer_label=f
compound=C#CCOC(=O)N[C@H](C=CCCCC)c1ccccc1 answer_label=t
